Assay: A qHTS for Small Molecule Inhibitors of Shiga Toxin; also: 0% is about no effect
Conditions: Vero cells, Shiga toxin protein synthesis inhibition reporter; at 38.7 µM, active compounds read high
Screen size: about 290,000 compounds; about 27,000 (9.3%) were called active. What follows is part of a selection rich in actives, with near analogues and random picks from the rest.
Below, each entry is listed with its recorded inhibition.
Endpoint Label: inhibition

Compound: CC(=O)c1ccc(OCCN2CCOCC2)cc1
Endpoint Label: inhibition
Observed: 32.1% (inactive)
//
Compound: COc1ccccc1CCCNC(=O)C1CCC(=O)N(CCN2CCOCC2)C1 (configuration not stated)
Endpoint Label: inhibition
Observed: -25.5% (inactive)
//
Compound: Cc1ccc2c(c1)N(CC(=O)N1CCC(C)CC1)C(=O)c1cccnc1O2
Endpoint Label: inhibition
Observed: 9.85% (inactive)
//
Compound: CCOC(=O)c1cc2c(nc1NC(=S)Nc1ccccc1)CC(C)(CC)OC2 (configuration not stated)
Endpoint Label: inhibition
Observed: -8.83% (inactive)
//
Compound: c1ccc(-c2ccc(OCCN3CCOCC3)cc2)cc1
Endpoint Label: inhibition
Observed: 86.3% (active)
//
Compound: Cc1ccc(-n2c(C)cc(/C=C(\C#N)C(=O)NCC3CCCO3)c2C)cc1 (configuration not stated)
Endpoint Label: inhibition
Observed: 108% (active)
//
Compound: CCOC(=O)c1cn[nH]c1NC(=S)Nc1ccccc1
Endpoint Label: inhibition
Observed: 57.1% (active)
//
Compound: Cc1cc(-c2ccc(C)c(S(=O)(=O)NCCCN(Cc3ccccc3)C(C)C)c2)on1
Endpoint Label: inhibition
Observed: -6.03% (inactive)
//
Compound: COc1ccc(C(C(=O)NCC2CCCO2)N(C(=O)Cn2nnc3ccccc32)c2ccc(NC(C)=O)cc2)cc1OC (configuration not stated)
Endpoint Label: inhibition
Observed: -9.93% (inactive)
//
Compound: CCn1nc(C)c(CNC(=O)C2CCC(=O)N(Cc3cccc(F)c3)C2)c1C (configuration not stated)
Endpoint Label: inhibition
Observed: -13.2% (inactive)
//
Compound: Cn1c(=O)c2c(SCC(=O)NCC3CCCO3)nc(CC(C)(C)C)nc2n(C)c1=O (configuration not stated)
Endpoint Label: inhibition
Observed: -7.65% (inactive)
//
Compound: CC(Nc1nc(C(F)(F)F)nc2ccccc12)c1cccs1 (configuration not stated)
Endpoint Label: inhibition
Observed: 29.3% (inactive)
//
Compound: Cc1cc(=O)oc2c(C)c(OC(C)C(=O)NC3CCN(Cc4ccccc4)CC3)ccc12 (configuration not stated)
Endpoint Label: inhibition
Observed: -5.37% (inactive)
//
Compound: CC(=O)c1cc(CN2CCC(n3nccc3NC(=O)c3ccccc3Cl)CC2)cs1
Endpoint Label: inhibition
Observed: -20.5% (inactive)
//
Compound: CSc1ccc(S(=O)(=O)N2CCC(C(=O)NCCc3ccccc3)CC2)cc1
Endpoint Label: inhibition
Observed: 56.2% (inactive)
//
Compound: CCOC(=O)c1ccc(NC(=S)Nc2cc(C)cc(C)n2)cc1
Endpoint Label: inhibition
Observed: -12.4% (inactive)
//
Compound: O=C(O)c1[nH]c2ccccc2c1C(c1cccc(O)c1)c1c(C(=O)O)[nH]c2ccccc12
Endpoint Label: inhibition
Observed: -5.15% (inactive)
//
Compound: Cc1cc(=O)n2nc(N3CCCC(C(=O)NCc4ccc(Cl)cc4)C3)sc2n1 (configuration not stated)
Endpoint Label: inhibition
Observed: -10.3% (inactive)
//
Compound: Cc1ccc(C(C)C)cc1OCC(=O)Nc1ccccc1N1CCCC1
Endpoint Label: inhibition
Observed: 38.7% (inactive)
//
Compound: O=C(c1ccc[nH]c1=S)N1CCN(S(=O)(=O)c2ccc(Br)cc2Cl)CC1
Endpoint Label: inhibition
Observed: -6.76% (inactive)
//
Compound: COc1cc(CC(=O)N2CCC(n3nccc3NC(=O)C3CC3)CC2)cc(OC)c1OC
Endpoint Label: inhibition
Observed: -10.9% (inactive)
//
Compound: CCN(Cc1ccccc1)C(=O)CN1C(=S)NC(C)(C)CC1C (configuration not stated)
Endpoint Label: inhibition
Observed: -3.94% (inactive)
